The reader will find reported relative viability values listed item by item below.
test system: SK-LMS-1; assay: relative viability vs DMSO control (72 h) (fraction); higher = more viable cells; conditions: 0.00457 µM

>  <molecule>
C[C@H]1Oc2cc(cnc2N)-c2c(nn(C)c2C#N)CN(C)C(=O)c2ccc(F)cc21

>  <relative viability>
1.09

$$$$
>  <molecule>
CCCS(=O)(=O)N[C@H]1C[C@@H](N(C)c2ncnc3[nH]ccc23)C1

>  <relative viability>
1.02

$$$$
>  <molecule>
NC(=O)c1cccc2cn(-c3ccc([C@@H]4CCCNC4)cc3)nc12

>  <relative viability>
1.12

$$$$
>  <molecule>
COc1cc2nccc(Oc3ccc(NC(=O)C4(C(=O)Nc5ccc(F)cc5)CC4)cc3)c2cc1OC [Cabozantinib]

>  <relative viability>
1.13

$$$$
